Entries and their Kd
biological target: HLA-A*03:01; assay: IEDB peptide-MHC binding, purified MHC/competitive/radioactivity; filed as Kd, often an IC50 or EC50 that approximates it; bounds were set here for any values at or beyond the usual limits of such assays; details: source organism: Plasmodium falciparum 3D7
Kindly provide the numeric value in nM only, without the unit symbol.

# Primary sequence, Parameter, Reading
rows = [
    ("YLINKHWQR", "Kd", 1030),
    ("LQMMNVNLQK", "Kd", 25),
    ("EQRLPLLPK", "Kd", 1090),
    ("SISGKYDIK", "Kd", 2090),
    ("SSFDIKSEVK", "Kd", 1900),
    ("AFLESQSMNK", "Kd", 3060),
]

Quote Kd reported for IFLRFIPDK please.
2440

Quote Kd reported for KSMLKELIK please.
189

Quote Kd reported for LFDKDTFFK please.
931

Quote Kd reported for IIALLIIPPK please.
30
